# System: HCT-116
# Method Notes: NCI tumour cell line growth inhibition, 48 h
The source made the active and inactive calls. Rule as the data show it: active = GI50 up to about 1.1 µM and inactive = higher.
Use one of these outcomes when replying: Y (active), N (inactive)

Query: Hey, what did the test say about Cc1ccc(S(=O)(=O)N/N=C2/C(=O)Nc3c(Cl)cc(Cl)cc32)cc1 ?
Response: N

Query: Called result for CC(C)c1cc2c(cc1S(=O)(=O)O)[C@@]1(C)CCC[C@@](C)(C(=O)O)C1CC2 (some centres undefined)
Response: N

Query: Hi team, can someone confirm the assay call for NC(=O)NNc1nc(-c2ccccc2)cs1 ?
Response: N

Query: I'd appreciate the recorded outcome for CNC(=O)OCc1nc(SC)n(C)c1CO from this test.
Response: N

Query: Per the assay record, what outcome was assigned to COc1cc(C2c3cc4c(cc3OC(N3CCOCC3)C2C)OCO4)cc(OC)c1OC (centres undefined) ?
Response: Y

Query: Please indicate how the test categorized N#Cc1c(N2CCCC2)nsc1NCc1ccccc1 .
Response: N

Query: Record lookup: outcome of this test for O=C(NCCCCNc1cccccc1=O)OCc1ccccc1 ?
Response: N

Query: Could you check what this test reported for CC1=N[C@@](C)(C2CC3C=CC2C3=O)COC1=O (some centres undefined) ?
Response: N

Query: Write down the call the test reported for this molecule. Item: Cc1cccc2sc(NC(=O)c3cc([N+](=O)[O-])ccc3Cl)nc12
Response: N

Query: Each molecule tested received a call. Report the one for Cn1c(=O)nc2n(-c3ccc(Cl)c(C(F)(F)F)c3)c3ccccc3nc-2c1=O .
Response: N

Query: For this molecule, state the assay outcome: C=CCN1C[C@H](C)N([C@@H](c2ccc(C(=O)N3CCCCC3)cc2)c2cccc(OC)c2)C[C@H]1C
Response: N

Query: Status in this test for O=S(=O)(CC1=NC2C=CC=CC2N=C1)NCc1ccccc1 (centres undefined) ?
Response: N

Query: Fill in: this test's call for O=c1cc(CSc2c(-c3ccccc3)c(=O)n(-c3ccccc3)c(=S)n2-c2ccccc2)[nH]c(=O)[nH]1 is ___
Response: N

Query: Which outcome did this test record for the molecule Cc1ncc2c(=O)c3c(oc2n1)c1ccccc1n3Cc1ccccc1 ?
Response: N

Query: Short answer needed: outcome of this test for CC(CC=O)Nc1nn2c(=O)c3ccccc3nc2s1 (centres undefined) ?
Response: N

Query: Would you mind telling me which call this test gave COc1ccc2nc3cc(Cl)ccc3c(NCCCN(Cc3cc(OC)c(OC)c(OC)c3)Cc3cc(OC)c(OC)c(OC)c3)c2c1 ?
Response: Y

Query: Status in this test for COc1cccc2c1C(=O)c1c(O)c3c(c(O)c1C2=O)C[C@@](O)(C(=O)CO)C[C@@H]3OC1CC(N2CCOCC2C#N)C(O)C(C)O1 (some centres undefined) ?
Response: Y

Query: What is the recorded call for this molecule in the test? CC1=NC2(C(=O)O)C3(C(=O)O)N=C(C)OC3(C(F)(F)F)C2(C(F)(F)F)O1 (centres undefined)
Response: N

Query: What outcome does the record of this test show for O=[N+]([O-])c1cc(Br)cc2cc(Cl)cnc12 ?
Response: N

Query: Identify the outcome logged in this assay for the molecule shown: CN(C)c1ccc(/C=c2/c3ccccc3n3c2cc(C24CC5CC(CC(C5)C2)C4)[n+]3C)cc1
Response: Y

Query: # outcome recorded in this test, key = O=C1C=CC(=O)N1c1ccc2c(c1)Cc1cc(NC(=O)C(F)(F)F)ccc1-2
Response: N

Query: Hi, sorry to bother you, what did the test record for O=C(C=P(c1ccccc1)(c1ccccc1)c1ccccc1)c1ccc(-c2ccc(F)cc2F)cc1 ?
Response: N

Query: Tell me the assay call for O=C1N/C(=N/N=C/C(O)C(O)C(O)C(O)CO)N/C1=C\c1ccco1 (centres undefined) please.
Response: N

Query: Please let me know the test result on file for CC(C)CCCC(C)[C@H]1CCC2[C@@H]3CCC4Cc5nc6c(nc5C[C@]4(C)C3CC[C@@]21C)CC1CC[C@@H]2C(C[C@@H](O)[C@@]3(C)C2C[C@@H]2OC4(CCC(C)CO4)C(C)[C@@H]23)[C@@]1(C)C6 (some centres undefined) .
Response: N

Query: Just curious, what result did O=C(CNc1ccccc1[N+](=O)[O-])Nn1cnc2ccc(S(=O)(=O)Nc3ccccc3[N+](=O)[O-])cc2c1=O get here?
Response: N

Query: Hi, do you know how CCOC(=O)c1c(-c2[nH]c(C(=O)OCc3ccccc3)c(C)c2C(=O)OCC)[nH]c(C(=O)OCc2ccccc2)c1C came out in this test?
Response: N

Query: For N#Cc1c(-c2ccc(Cl)cc2)c2c(n(C3OC(CO)C(O)C(O)C3O)c1=S)CCC2 (centres undefined) , which call appears in the assay record?
Response: N

Query: Please state the recorded outcome for this molecule: O=C(CC(=O)N1N=C(n2ccc3ccccc32)CC1c1ccccc1)Nc1ccccc1Cl (centres undefined)
Response: N

Query: Please let me know the test result on file for CSC1=N/C(=C\c2ccccc2)C(=O)N1CN1CCCCC1 .
Response: N

Query: For COc1ccc(/N=C\c2ccc(N(CCC#N)CCC#N)cc2)cc1 , what call appears in the results of this test?
Response: N

Query: Test call, this molecule: COc1cc(COC(=O)N[C@H](C(=O)O)C(C)(C)C)c([N+](=O)[O-])cc1OC
Response: N

Query: Name the outcome recorded for CC1=C(C(=O)Nc2ccccc2)C(c2cccc3ccccc23)C(C(=O)Nc2ccccc2)=C(C)N1 in the assay.
Response: N

Query: Hi team, can someone confirm the assay call for CC(C)N1CN(C(C(=O)N[C@@H]2C(=O)N3C2SC(C)(C)C3C(=O)O)c2ccc(O)cc2)CSC1=S (some centres undefined) ?
Response: N

Query: // param item: COC(=O)C1C(O)CC(c2ccccn2)N(Cc2ccccc2)C1c1ccccn1 (centres undefined) ; yields the recorded call
Response: N

Query: Per the records of this test, what outcome belongs to N/C(=N\Nc1ccc(C(=O)O)cc1)c1cnccn1 ?
Response: N

Query: Write down the call the test reported for this molecule. Item: C=CNC(=S)n1nc(-c2ccccc2NC(=O)C(F)(F)F)c(=O)n(C(=S)NC=C)c1=S
Response: N

Query: Which result was noted for this molecule in the test: Cc1oc2nc(N(C)C)n3cnnc3c2c1C
Response: N

Query: Kindly provide the recorded test outcome for the following molecule: CN(C)CCNC(=O)c1cccc2c1Nc1ccccc1S2
Response: N

Query: GET /call?item= O=[N+]([O-])C(=C1NCCN1)C(Cl)=C(Cl)Cl returns the recorded outcome of this test.
Response: N
